# Read-out: Interleukin-8 (IL8), CXCL8 (gene 3576)
# assay remarks: BSK_LPS_IL8: BioMAP Diversity Plus: LPS Assay for Interleukin-8 (IL8) Biomarker Activity (AID 2283078)
# condition label: primary human HUVEC with PBMC; actives raise or lower the signal
The source made the active and inactive calls. The calls were made as follows: active = hit-call score of the fitted dose curve at least 0.9, where 1 is the maximum; inactive = score below 0.9.
Labels: active, inactive

>>> assigned_label("O=[N+]([O-])c1ccc(Nc2ccccc2)cc1")
"inactive"
>>> assigned_label("Oc1c(Br)cc(Br)cc1Br")
"inactive"
>>> assigned_label("Nc1c(Oc2ccccc2)cc(O)c2c1C(=O)c1ccccc1C2=O")
"inactive"
>>> assigned_label("N#CCCC(Br)(C#N)CBr (stereo not given)")
"active"
>>> assigned_label("Oc1cc(Cl)c(Cl)cc1Cl")
"active"

* * *

# assay remarks: ATG_NRF2_ARE_CIS: Attagene CIS-FACTORIAL HepG2 Assay for human Nuclear Factor Erythroid 2 Related Factor 2 (NFR2) response to Antioxidant Response Elements (ARE) (AID 2282992);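 as to AC50: reporter mRNA level measured by RT-PCR and capillary electrophoresis fluorescence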
# condition label: HepG2 Attagene ARE/NRF2 reporter, transcription factor activity; actives raise or lower the signal
The source made the active and inactive calls. How the source made its calls: active means hit-call score of the fitted dose curve at least 0.9, where 1 is the maximum; inactive means score below 0.9.
parameter measured: AC50

>>> result("O=[N+]([O-])c1cc([As](=O)(O)O)ccc1O")
"inactive"
>>> result("O=C(CBr)c1ccc(O)cc1")
"41.5 µM (active)"
>>> result("O=[N+]([O-])c1c2ccccc2cc2ccccc12")
"5 µM (active)"
>>> result("N#Cc1ccncc1")
"inactive"
>>> result("NNCCO")
"inactive"
>>> result("Nc1ncn[nH]1")
"inactive"
>>> result("FC(F)OCC(F)(F)C(F)(F)F")
"inactive"
>>> result("CCCCOC(=O)COC(=O)c1ccccc1C(=O)OCCCC")
"inactive"
>>> result("Clc1cc(C(Cl)(Cl)Cl)cnc1Cl")
"inactive"
>>> result("Cc1cc(Cl)ccc1OCCCC(=O)O")
"inactive"
>>> result("Nc1cccnc1")
"inactive"
>>> result("C[As+](C)(C)CC(=O)[O-]")
"inactive"
>>> result("BrCc1ccc(Br)cc1")
"inactive"
>>> result("O=C(Cl)OCCOCCOC(=O)Cl")
"inactive"
>>> result("CC(C)[C@@H](Nc1ccc(C(F)(F)F)cc1Cl)C(=O)OC(C#N)c1cccc(Oc2ccccc2)c1 (stereo partly drawn)")
"17.1 µM (active)"
>>> result("c1cc[c]([Sb]([c]2ccccc2)[c]2ccccc2)cc1")
"70.3 µM (active)"
>>> result("O=C(NC(=O)c1c(F)cccc1F)Nc1cc(Cl)c(OC(F)(F)C(F)C(F)(F)F)cc1Cl (stereo not drawn)")
"73 µM (active)"
>>> result("CCCCCCCCCCCCc1cccc(S(=O)(=O)O)c1")
"44.3 µM (active)"
>>> result("CN(C)CCN(C)C")
"inactive"
>>> result("Brc1ccc(Br)cc1")
"inactive"
>>> result("CCC[CH2][Sn]([Cl])([Cl])[CH2]CCC")
"0.315 µM (active)"
>>> result("CCNc1nc(NCC)nc(SC)n1")
"inactive"
>>> result("CCCCS(=O)(=O)Cl")
"inactive"

* * *

# target under test: human Retinoid X Receptor beta (RXRb), RXRB (gene 6257) (UniProt P28702)
# Sequence (P28702 whole entry, looked up): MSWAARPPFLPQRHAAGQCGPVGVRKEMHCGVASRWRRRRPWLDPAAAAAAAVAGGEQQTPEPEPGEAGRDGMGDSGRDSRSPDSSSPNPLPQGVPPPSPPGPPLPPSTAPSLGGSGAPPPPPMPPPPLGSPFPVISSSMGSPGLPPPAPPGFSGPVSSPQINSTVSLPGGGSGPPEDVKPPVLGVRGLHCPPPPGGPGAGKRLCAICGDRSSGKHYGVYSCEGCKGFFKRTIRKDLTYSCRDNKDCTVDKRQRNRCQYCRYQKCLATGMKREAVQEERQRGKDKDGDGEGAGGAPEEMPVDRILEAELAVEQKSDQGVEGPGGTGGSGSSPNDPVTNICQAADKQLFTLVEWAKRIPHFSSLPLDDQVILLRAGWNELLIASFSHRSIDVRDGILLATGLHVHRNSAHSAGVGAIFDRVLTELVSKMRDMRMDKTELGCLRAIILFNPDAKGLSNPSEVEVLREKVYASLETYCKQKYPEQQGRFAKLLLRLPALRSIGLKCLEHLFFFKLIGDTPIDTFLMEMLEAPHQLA
# assay remarks: ATG_RXRb_TRANS: Attagene TRANS-FACTORIAL HepG2 Assay for human Retinoid X Receptor beta (RXRb) (AID 2283013)
Records with an inconclusive call do not appear. Active and inactive are the calls of the source. Rule for the calls: active = hit-call score of the fitted dose curve at least 0.9, where 1 is the maximum; inconclusive = response in the unintended direction; inactive = score below 0.9.
Labels: active, inactive

>>> assigned_label("CC(C)(C)c1ccc(CCOc2ncnc3ccccc23)cc1")
"inactive"
>>> assigned_label("CCCCCCCCCCCCOS(=O)(=O)O")
"active"
>>> assigned_label("Clc1cccc(Cl)c1")
"inactive"
>>> assigned_label("O=c1[nH]c(=O)n(Cl)c(=O)n1Cl")
"inactive"
>>> assigned_label("CC(C)C(C)(N)C#N (stereo unspecified)")
"inactive"
>>> assigned_label("C[C@]12CC[C@@H](O)C[C@@H]1CC[C@@H]1[C@@H]2CC[C@]2(C)C(=O)CC[C@@H]12")
"inactive"
>>> assigned_label("CC(C)(C#N)N=NC(C)(C)C#N")
"inactive"
>>> assigned_label("CC(C=O)Cc1ccc2c(c1)OCO2 (stereo unspecified)")
"inactive"
>>> assigned_label("BrCCCCBr")
"inactive"
>>> assigned_label("CCOP(=S)(OCC)OP(=S)(OCC)OCC")
"active"
>>> assigned_label("CCOC(=O)CC(=O)CCl")
"inactive"
>>> assigned_label("C=CCc1ccccc1O")
"inactive"
>>> assigned_label("CCOC(=O)CCN(SN(C)C(=O)Oc1cccc2c1OC(C)(C)C2)C(C)C")
"active"
>>> assigned_label("CNC(=O)O/N=C/C(C)(C)S(C)(=O)=O")
"inactive"
>>> assigned_label("COc1ccccc1N")
"inactive"
>>> assigned_label("Nc1ccc(Br)cc1")
"inactive"

* * *

# Read-out: Epidermal growth factor receptor (EGFR), EGFR (gene 1956)
# assay remarks: BSK_hDFCGF_EGFR: BioMAP Diversity Plus: hDFCGF Assay for Epidermal growth factor receptor (EGFR) Biomarker Activity (AID 2283057)
# condition label: primary human foreskin fibroblasts; actives raise or lower the signal
Activity calls are given as the source filed them. How the source made its calls: active means hit-call score of the fitted dose curve at least 0.9, where 1 is the maximum; inactive means score below 0.9.
Labels: class 1 = active, class 0 = inactive

>>> assigned_label("NC(=O)CCl")
"class 0"
>>> assigned_label("CCCCCCCCCCCCN(C)C")
"class 0"
>>> assigned_label("O=S(=O)(C(Cl)(Cl)Cl)C(Cl)(Cl)Cl")
"class 1"
>>> assigned_label("CC1(C)[C@H](C(=O)O[C@H](C#N)c2cccc(Oc3ccccc3)c2)[C@@H]1/C=C(\\Cl)C(F)(F)F")
"class 0"
>>> assigned_label("Cc1cc(C(C)(C)c2ccc(O)c(C)c2)ccc1O")
"class 0"
>>> assigned_label("CCOP(=S)(OCC)SCS(=O)(=O)C(C)(C)C")
"class 0"
>>> assigned_label("CCOC(=O)CCN(SN(C)C(=O)Oc1cccc2c1OC(C)(C)C2)C(C)C")
"class 0"
>>> assigned_label("Oc1cc(Cl)c(Cl)cc1Cl")
"class 0"
>>> assigned_label("CC(C=O)Cc1ccc2c(c1)OCO2 (stereo unspecified)")
"class 0"
>>> assigned_label("Oc1ccc(Cc2ccc(O)cc2)cc1")
"class 0"
>>> assigned_label("Cc1cc(Cl)ccc1N")
"class 0"
>>> assigned_label("O=C(N[C@H]1CN2CCC1CC2)c1ccc2c(c1)OCCO2")
"class 0"
>>> assigned_label("Cc1ccccc1OP(=O)(Oc1ccccc1)Oc1ccccc1")
"class 0"
>>> assigned_label("OC(Cc1ccccc1Cl)(Cn1cncn1)C1(Cl)CC1 (stereo unspecified)")
"class 0"
>>> assigned_label("O=C(CCl)NCO")
"class 0"
>>> assigned_label("O=C(O)C1(c2ccc3c(c2)OC[C@H](Cc2ccc(-c4ccccc4)cc2)[C@H]3O)CCCC1")
"class 1"
>>> assigned_label("N#Cc1cccnc1")
"class 0"
>>> assigned_label("CCCCCCCCCCCCc1cccc(S(=O)(=O)O)c1")
"class 1"
>>> assigned_label("CCOP(=O)(OCC)SCCSCC")
"class 0"
>>> assigned_label("CCOC(=O)C(SP(=S)(OC)OC)c1ccccc1 (stereo unspecified)")
"class 0"
>>> assigned_label("CN(C)C(=S)S")
"class 0"
>>> assigned_label("Cc1ccc(OP(=O)(Oc2ccc(C)cc2C)Oc2ccc(C)cc2C)c(C)c1")
"class 1"
>>> assigned_label("O=C(O)COc1cc(Cl)c(Cl)cc1Cl")
"class 0"
>>> assigned_label("Nc1ccc(N)cc1")
"class 0"
>>> assigned_label("c1ccc2sc(SNC3CCCCC3)nc2c1")
"class 0"
>>> assigned_label("CCOP(=O)(OCC)OC(=CCl)c1ccc(Cl)cc1Cl")
"class 0"
>>> assigned_label("CC(C)(COCC1CO1)COCC1CO1 (stereo unspecified)")
"class 0"
>>> assigned_label("N#CCCC(Br)(C#N)CBr (stereo unspecified)")
"class 0"
>>> assigned_label("CC(C)O.CC(C)O.OCCN(CCO)CCO.OCCN(CCO)CCO.[Ti]")
"class 0"
>>> assigned_label("CCN(CC)C(=O)C(Cl)=C(C)OP(=O)(OC)OC")
"class 0"
>>> assigned_label("O=C(Cc1ccccc1)OCCc1ccccc1")
"class 0"

* * *

# target under test: Peroxisome proliferator-activated receptor gamma (Homo sapiens) (UniProt P37231)
# Sequence (P37231 whole entry, looked up): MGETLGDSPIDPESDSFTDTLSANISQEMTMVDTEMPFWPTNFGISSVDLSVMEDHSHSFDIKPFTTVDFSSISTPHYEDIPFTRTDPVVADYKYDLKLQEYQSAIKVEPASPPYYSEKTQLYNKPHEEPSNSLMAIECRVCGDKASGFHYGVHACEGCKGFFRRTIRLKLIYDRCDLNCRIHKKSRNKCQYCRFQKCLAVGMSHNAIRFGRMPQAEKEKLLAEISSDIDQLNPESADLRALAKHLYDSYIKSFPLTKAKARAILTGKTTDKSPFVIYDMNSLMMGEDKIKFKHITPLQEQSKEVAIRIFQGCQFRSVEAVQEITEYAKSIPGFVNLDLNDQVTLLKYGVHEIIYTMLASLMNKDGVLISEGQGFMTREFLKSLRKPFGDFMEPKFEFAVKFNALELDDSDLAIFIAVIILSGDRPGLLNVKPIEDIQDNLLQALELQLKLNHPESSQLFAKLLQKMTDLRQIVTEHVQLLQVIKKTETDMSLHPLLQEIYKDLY
# assay remarks: ATG_PPARg_TRANS: Attagene TRANS-FACTORIAL HepG2 Assay for human Peroxisome Proliferator-activated Receptor-gamma (PPARg) (AID 2283007)
Results filed as inconclusive are left out. The source made the active and inactive calls. The calls were made as follows: active = hit-call score of the fitted dose curve at least 0.9, where 1 is the maximum; inconclusive = response in the unintended direction; inactive = score below 0.9.
Labels: 1 (yes) = active, 0 (no) = inactive

>>> assigned_label("CCCCCCCCCCCCBr")
"1 (yes)"
>>> assigned_label("Cc1ccc2nc3sc(=O)sc3nc2c1")
"1 (yes)"
>>> assigned_label("CCCCOP(=O)(CCCC)OCCCC")
"1 (yes)"
>>> assigned_label("C=CC(Cl)CCl (centres undefined)")
"0 (no)"
>>> assigned_label("CCOP(=S)(OCC)SCS(=O)(=O)C(C)(C)C")
"0 (no)"
>>> assigned_label("O=S(=O)(c1ccc(Cl)cc1)c1cc(Cl)c(Cl)cc1Cl")
"1 (yes)"
>>> assigned_label("C[CH2][Hg][S]c1ccccc1C(=O)O")
"1 (yes)"
>>> assigned_label("O=[N+]([O-])c1c2ccccc2cc2ccccc12")
"1 (yes)"
>>> assigned_label("[Cl][Sn]([c]1ccccc1)([c]1ccccc1)[c]1ccccc1")
"1 (yes)"
>>> assigned_label("O=C(NC(=O)c1c(F)cccc1F)Nc1cc(Cl)c(OC(F)(F)C(F)C(F)(F)F)cc1Cl (centres undefined)")
"0 (no)"
>>> assigned_label("CC(C)(COCC1CO1)COCC1CO1 (centres undefined)")
"0 (no)"
>>> assigned_label("CC(=O)C(F)(F)C(F)(F)F")
"0 (no)"
>>> assigned_label("CC(C)[C@@H](Nc1ccc(C(F)(F)F)cc1Cl)C(=O)OC(C#N)c1cccc(Oc2ccccc2)c1 (some centres undefined)")
"1 (yes)"
>>> assigned_label("O=C1C[C@@H]2OCC=C3CN4CC[C@]56c7ccccc7N1[C@H]5[C@H]2[C@H]3C[C@H]46")
"0 (no)"
>>> assigned_label("O=C(NC(=O)c1c(F)cccc1F)Nc1cc(Cl)c(F)c(Cl)c1F")
"0 (no)"
>>> assigned_label("C=C(C)C(=O)OCCCCOC(=O)C(=C)C")
"1 (yes)"
>>> assigned_label("Cc1cccc(OP(=O)(Oc2cccc(C)c2)Oc2cccc(C)c2)c1")
"1 (yes)"
>>> assigned_label("Nc1nc(=S)[nH][nH]1")
"0 (no)"
>>> assigned_label("CCCCCCCCCCCCCCC(Br)C(=O)O (centres undefined)")
"1 (yes)"
